assay.method.text: Median toxic dose (TD50) / toxic doses of Compound #8 and reference drugs
measurement.context: Sprague-Dawley, rat, in vivo, ip
outcome.measure: TD50

INSERT INTO measurements (record_smiles, result) VALUES
  ('NS(=O)(=O)NC[C@H]1COc2cc(Cl)ccc2O1', '~100 mg/kg');

---

Test system: Sprague Dawley rats
assay.method.text: Forced Swim Test (Acute)
Assay type: in vivo, rat
measurement.context: p.o.
outcome.measure: doses at which effect on immobility was statistically significant vs vehicle

INSERT INTO assay_data (compound, result) VALUES
  ('NS(=O)(=O)NC[C@H]1COc2cc(Cl)ccc2O1 [Compound #8]', '12 mg/kg, 60 mg/kg, and 120 mg/kg'),
  ('CNCCCC12CCC(c3ccccc31)c1ccccc12 [maprotyline]', '30 mg/kg and 60 mg/kg'),
  ('COc1ccc(C(CN(C)C)C2(O)CCCCC2)cc1 (stereo not shown) [Venlafaxine, venlafaxine, reference compound]', '30 mg/kg and 60 mg/kg');
